The reported measurements were obtained from patent US20240384268A1.

TESTED ON: human TLR7 (Homo sapiens)
Construct: HA; host or cells: 293XL-hTLR7-HA (HEK293)
METHOD NOTES: HEK-TLR7 NF-κB-luciferase reporter, R848 stimulation
Type: cell-based
REPORTED CONDITIONS: ASO 500 nM; relative to R848 only, given as fraction
Kindly return Y if reported TLR7 500 nM (averaged NF-κB-Luciferase level relative to R848 condition) is no lower than 0.1; return N if it is lower.

{"columns": ["RESIDUE SEQUENCE", "CLASS ASSIGNMENT"],
 "data": [
  ["CTGCAGCTTCCTTGTC (antisense; LNA-modified, pattern not given here) [CTNN2B-2136 LNA V1]", "N"]
]}

Item TCTTGGCTTCGTGGAG (antisense; LNA-modified, pattern not given here) [MB21D1-521 LNA V1] with TLR7 500 nM (averaged NF-κB-Luciferase level relative to R848 condition) of 0.1 or above?
Y

Item TCCATACCCAAGGCAT (antisense; LNA-modified, pattern not given here) [CTNN2B-2446 LNA V1] with TLR7 500 nM (averaged NF-κB-Luciferase level relative to R848 condition) of 0.1 or above?
Y

----------
TESTED ON: TLR8 (Homo sapiens, UniProt Q9NR97)
Sequence (Q9NR97 27-1041): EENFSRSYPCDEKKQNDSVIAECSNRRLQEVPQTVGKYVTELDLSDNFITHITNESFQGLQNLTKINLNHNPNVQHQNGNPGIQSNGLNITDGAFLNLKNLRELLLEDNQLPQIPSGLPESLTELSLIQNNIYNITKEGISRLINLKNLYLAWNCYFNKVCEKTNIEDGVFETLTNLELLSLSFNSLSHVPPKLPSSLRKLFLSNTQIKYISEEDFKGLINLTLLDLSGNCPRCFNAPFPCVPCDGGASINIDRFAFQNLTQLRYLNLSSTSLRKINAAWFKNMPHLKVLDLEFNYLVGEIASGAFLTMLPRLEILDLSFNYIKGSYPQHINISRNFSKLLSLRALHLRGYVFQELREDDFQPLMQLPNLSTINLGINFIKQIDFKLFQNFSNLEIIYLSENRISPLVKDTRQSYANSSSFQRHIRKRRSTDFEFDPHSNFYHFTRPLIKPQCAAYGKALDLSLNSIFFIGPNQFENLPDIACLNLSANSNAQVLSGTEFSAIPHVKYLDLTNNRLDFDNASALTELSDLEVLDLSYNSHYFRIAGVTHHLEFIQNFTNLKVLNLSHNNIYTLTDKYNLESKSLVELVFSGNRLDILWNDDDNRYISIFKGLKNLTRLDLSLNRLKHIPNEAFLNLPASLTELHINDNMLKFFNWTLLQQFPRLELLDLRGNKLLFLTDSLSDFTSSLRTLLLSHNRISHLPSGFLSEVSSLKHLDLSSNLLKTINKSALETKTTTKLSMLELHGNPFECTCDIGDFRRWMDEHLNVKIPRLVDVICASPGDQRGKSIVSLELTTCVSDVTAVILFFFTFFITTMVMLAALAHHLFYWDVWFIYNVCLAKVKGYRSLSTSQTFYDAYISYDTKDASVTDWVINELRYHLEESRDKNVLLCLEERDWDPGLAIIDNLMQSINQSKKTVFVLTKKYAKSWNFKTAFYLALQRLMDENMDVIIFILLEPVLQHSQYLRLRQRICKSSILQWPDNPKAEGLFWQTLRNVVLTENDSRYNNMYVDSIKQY
METHOD NOTES: HEK-TLR8 NF-κB-luciferase reporter, R848 or Motolimod stimulation (potentiation or inhibition)
Format: cell-based
Design: expressed in transfected cells; host or cells: 293XLhTLR8 (HEK293)
REPORTED CONDITIONS: ASO 100 nM; relative to R848 only
MEASURED ATTRIBUTE: TLR8 100 nM (averaged NF-κB-Luciferase level relative to R848 condition, fold increase)
Note: the reply should be a number with no unit written.

Answered cases to consult:
{"columns": ["RESIDUE SEQUENCE", "REPORTED"],
 "data": [
  ["ACTTCGTGGGGTCCTT (antisense; LNA-modified, pattern not given here) [HPRT LNA-663 V1]", 0.820],
  ["TGACTGTCTTGAGGGT (antisense; LNA-modified, pattern not given here) [MB21D1-1483 LNA KL]", 0.973],
  ["TTTTGGCTGGGATCAA (antisense; LNA-modified, pattern not given here) [CAMSAP1-4697 LNA KL]", 0.542]
]}

For the sequence shown here, GCCATCCACTTGATAG (antisense; LNA-modified, pattern not given here) [EGFR-2874 LNA V1] , give the reported TLR8 100 nM (averaged NF-κB-Luciferase level relative to R848 condition, fold increase).
0.440

For the sequence shown here, GTCTTGGCTTCGTGGA (antisense; LNA-modified, pattern not given here) [MB21D1-522 LNA V1] , give the reported TLR8 100 nM (averaged NF-κB-Luciferase level relative to R848 condition, fold increase).
0.678

For the sequence shown here, CCCACTTGGCAGACCA (antisense; LNA-modified, pattern not given here) [CTNN2B-1576 LNA V1] , give the reported TLR8 100 nM (averaged NF-κB-Luciferase level relative to R848 condition, fold increase).
0.899

For the sequence shown here, AGGCCCTTCGCACTTC (antisense; LNA-modified, pattern not given here) [EGFR-1225 LNA V1] , give the reported TLR8 100 nM (averaged NF-κB-Luciferase level relative to R848 condition, fold increase).
0.507

----------
TLR7 100 nM (averaged NF-κB-Luciferase level relative to R848 condition) values for the sequences below.
TESTED ON: human TLR7 (Homo sapiens)
Construct: HA; host or cells: 293XL-hTLR7-HA (HEK293)
METHOD NOTES: HEK-TLR7 NF-κB-luciferase reporter, R848 stimulation
Format: cell-based
REPORTED CONDITIONS: ASO 100 nM; relative to R848 only, given as fraction
Note: the reply should be a number with no unit written.

{"columns": ["RESIDUE SEQUENCE", "REPORTED"],
 "data": [
  ["GTCTCTGGAGCTTCCT (antisense; LNA-modified, pattern not given here) [CAMSAP1-2456 LNA V1]", 0.477]
]}

For the sequence shown here, TGACTGTCTTGAGGGT (antisense; LNA-modified, pattern not given here) [MB21D1-1483 LNA KL] , give the reported TLR7 100 nM (averaged NF-κB-Luciferase level relative to R848 condition).
0.802

For the sequence shown here, CCCACTTGGCAGACCA (antisense; LNA-modified, pattern not given here) [CTNN2B-1576 LNA V1] , give the reported TLR7 100 nM (averaged NF-κB-Luciferase level relative to R848 condition).
1.024

For the sequence shown here, TTCGTGGGGTCCTTTT (antisense; LNA-modified, pattern not given here) [HPRT LNA-661 V1] , give the reported TLR7 100 nM (averaged NF-κB-Luciferase level relative to R848 condition).
0.487

----------
TESTED ON: human TLR7 (Homo sapiens, UniProt Q9NYK1)
Construct: HA; host or cells: 293XL-hTLR7-HA (HEK293)
Sequence (Q9NYK1 27-1049): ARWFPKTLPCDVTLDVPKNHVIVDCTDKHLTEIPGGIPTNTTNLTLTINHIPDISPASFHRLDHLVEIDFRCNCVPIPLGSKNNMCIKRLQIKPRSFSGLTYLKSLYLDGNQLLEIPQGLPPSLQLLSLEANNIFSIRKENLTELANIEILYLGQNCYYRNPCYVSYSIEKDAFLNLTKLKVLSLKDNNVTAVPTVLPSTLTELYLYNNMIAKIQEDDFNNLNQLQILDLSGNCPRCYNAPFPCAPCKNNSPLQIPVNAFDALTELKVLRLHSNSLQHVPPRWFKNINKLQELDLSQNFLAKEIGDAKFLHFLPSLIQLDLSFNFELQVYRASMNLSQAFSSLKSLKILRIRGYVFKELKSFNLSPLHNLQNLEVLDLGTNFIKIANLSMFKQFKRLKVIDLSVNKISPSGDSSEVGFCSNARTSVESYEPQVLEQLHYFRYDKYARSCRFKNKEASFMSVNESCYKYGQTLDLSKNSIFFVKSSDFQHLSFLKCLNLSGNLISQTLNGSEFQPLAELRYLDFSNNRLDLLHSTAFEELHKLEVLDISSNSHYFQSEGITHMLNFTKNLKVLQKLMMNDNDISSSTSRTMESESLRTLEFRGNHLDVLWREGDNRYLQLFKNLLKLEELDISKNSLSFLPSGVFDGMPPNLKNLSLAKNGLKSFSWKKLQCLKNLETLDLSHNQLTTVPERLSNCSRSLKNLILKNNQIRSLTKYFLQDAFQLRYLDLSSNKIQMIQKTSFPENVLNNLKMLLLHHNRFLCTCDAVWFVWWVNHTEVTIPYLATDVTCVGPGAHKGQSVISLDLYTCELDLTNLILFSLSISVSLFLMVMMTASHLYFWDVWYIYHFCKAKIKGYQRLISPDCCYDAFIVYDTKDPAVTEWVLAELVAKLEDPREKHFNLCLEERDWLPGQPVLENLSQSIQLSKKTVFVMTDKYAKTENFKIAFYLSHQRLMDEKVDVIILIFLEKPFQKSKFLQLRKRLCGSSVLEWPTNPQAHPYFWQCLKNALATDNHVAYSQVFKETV
METHOD NOTES: HEK-TLR7 NF-κB-luciferase reporter, R848 stimulation
Format: cell-based
REPORTED CONDITIONS: MOE-modified ASO at 500 nM; averaged NF-κB-Luciferase relative to R848 condition
MEASURED ATTRIBUTE: TLR7 500 nM
Note: the reply should be a number with no unit written.

{"columns": ["RESIDUE SEQUENCE", "TLR7 500 nM"],
 "data": [
  ["CAATGTGATGGCCTCCCATC (antisense; 2'-MOE modified, pattern not given here) [HPRT-335 MOE]", 0.279],
  ["GCTGACAAAGATTCACTGGT (antisense; 2'-MOE modified, pattern not given here) [HPRT-1353 MOE]", 0.190],
  ["GCTTCAGGCGCTGCCTTGCC (antisense; 2'-MOE modified, pattern not given here) [CAMSAP1-2709 MOE]", 0.196]
]}

For the sequence shown here, TGGCAGGCTCAGTGATGTCT (antisense; 2'-MOE modified, pattern not given here) [CTNN2B-1642 MOE] , give the reported TLR7 500 nM.
0.167

----------
TESTED ON: human TLR7 (Homo sapiens, UniProt Q9NYK1)
Construct: HA; host or cells: 293XL-hTLR7-HA (HEK293)
METHOD NOTES: HEK-TLR7 NF-κB-luciferase reporter, R848 stimulation
Type: cell-based
REPORTED CONDITIONS: ASO 500 nM; relative to R848 only, given as fraction
MEASURED ATTRIBUTE: TLR7 500 nM (averaged NF-κB-Luciferase level relative to R848 condition)
Note: the reply should be a number with no unit written.

{"columns": ["RESIDUE SEQUENCE", "REPORTED"],
 "data": [
  ["CCTTGCACGTGGCTTC (antisense; LNA-modified, pattern not given here) [EGFR-1013 LNA V1]", 0.281]
]}

For the sequence shown here, CTTGGCTTCGTGGAGC (antisense; LNA-modified, pattern not given here) [MB21D1-520 LNA V1] , give the reported TLR7 500 nM (averaged NF-κB-Luciferase level relative to R848 condition).
0.098

For the sequence shown here, TGTCCTTGCACGTGGC (antisense; LNA-modified, pattern not given here) [EGFR-1016 LNA V1] , give the reported TLR7 500 nM (averaged NF-κB-Luciferase level relative to R848 condition).
0.199

For the sequence shown here, AGTGTTGAGATACTCG (antisense; LNA-modified, pattern not given here) [EGFR-3652 LNA KL] , give the reported TLR7 500 nM (averaged NF-κB-Luciferase level relative to R848 condition).
0.115

----------
TESTED ON: human TLR9 (Homo sapiens)
Construct: HA; host or cells: 293XL-hTLR9-HA (HEK293)
Sequence (Q9NR96 26-1032): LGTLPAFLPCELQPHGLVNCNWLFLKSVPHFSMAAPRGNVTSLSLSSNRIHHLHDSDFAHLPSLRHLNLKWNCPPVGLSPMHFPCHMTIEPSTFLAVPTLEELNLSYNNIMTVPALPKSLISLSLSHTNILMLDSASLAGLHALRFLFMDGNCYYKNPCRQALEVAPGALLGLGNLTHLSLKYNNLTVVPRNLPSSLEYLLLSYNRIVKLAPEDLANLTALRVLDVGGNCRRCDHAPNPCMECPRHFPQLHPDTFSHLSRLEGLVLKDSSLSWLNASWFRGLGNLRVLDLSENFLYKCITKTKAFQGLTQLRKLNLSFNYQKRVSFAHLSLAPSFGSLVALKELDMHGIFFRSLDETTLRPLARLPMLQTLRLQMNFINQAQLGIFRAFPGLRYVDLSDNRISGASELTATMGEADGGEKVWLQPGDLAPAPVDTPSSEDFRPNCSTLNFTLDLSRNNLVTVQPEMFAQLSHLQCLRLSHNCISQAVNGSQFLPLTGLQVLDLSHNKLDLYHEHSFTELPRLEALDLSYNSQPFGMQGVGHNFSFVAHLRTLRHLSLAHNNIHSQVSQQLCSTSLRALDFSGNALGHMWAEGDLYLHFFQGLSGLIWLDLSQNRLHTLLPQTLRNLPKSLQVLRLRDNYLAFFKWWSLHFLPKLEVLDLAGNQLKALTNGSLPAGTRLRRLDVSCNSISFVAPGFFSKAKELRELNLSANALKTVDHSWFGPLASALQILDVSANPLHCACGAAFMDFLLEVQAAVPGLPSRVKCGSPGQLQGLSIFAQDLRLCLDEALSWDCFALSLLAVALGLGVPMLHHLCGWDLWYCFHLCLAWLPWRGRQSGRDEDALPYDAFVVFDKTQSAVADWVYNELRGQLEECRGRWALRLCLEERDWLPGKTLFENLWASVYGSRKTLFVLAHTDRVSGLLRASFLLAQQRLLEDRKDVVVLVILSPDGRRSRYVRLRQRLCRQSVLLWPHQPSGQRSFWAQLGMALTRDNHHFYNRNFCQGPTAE
METHOD NOTES: HEK-TLR9 NF-κB-luciferase reporter, ODN2006 stimulation
Type: cell-based
REPORTED CONDITIONS: HEK-TLR9; 500 nM ASO 45 min, then 200 nM ODN2006 overnight; percentage of ODN2006 only
In the oligonucleotide strings, read from the 5' end, every base follows the letter of its sugar. An asterisk marks phosphorothioate; unmarked linkages are phosphodiester. Other units and linkages are bracketed, terminal groups are in braces. A string of capitals states the bases alone. d = 2'-deoxy (DNA); m = 2'-O-methyl
Kindly return class 1 if reported TLR9-500 nM: averaged NF-κB-Luciferase relative to ODN2006 is no lower than 80%; return class 0 if it is lower.

{"columns": ["SUBSTANCE", "CLASS ASSIGNMENT"],
 "data": [
  ["mA*mA*mG*mG*mU*G*G*C*C*A*C*A*G*G*C*mA*mA*mC*mG*mU (mA*mA*mG*mG*mU*dG*dG*dC*dC*dA*dC*dA*dG*dG*dC*mA*mA*mC*mG*mU; antisense) [[CDKN2B-AS1]2198]", "class 1"],
  ["mG*mG*mU*mG*mG*C*C*A*C*A*G*G*C*A*A*mC*mG*mU*mC*mA (GGUGGCCACAGGCAACGUCA; antisense; sugars from the 5' end m5 d10 m5, all phosphorothioate, methylation of C not given here) [[CDKN2B-AS1]2196]", "class 1"],
  ["mA*mG*mC*mC*mG*A*A*C*A*G*A*A*G*G*A*mG*mC*mG*mU*mC (AGCCGAACAGAAGGAGCGUC; sugars from the 5' end m5 d10 m5, all phosphorothioate, methylation of C not given here) [[LINC-PINT]587 KL]", "class 0"],
  ["mG*mU*mC*mU*mC*C*T*C*C*A*C*A*C*C*C*mU*mU*mC*mU*mC (mG*mU*mC*mU*mC*dC*dT*dC*dC*dA*dC*dA*dC*dC*dC*mU*mU*mC*mU*mC; antisense) [[LINC-PINT]126]", "class 0"]
]}

Item mA*mA*mU*mA*mU*C*T*G*C*T*G*C*C*C*A*mC*mC*mU*mU*mC (mA*mA*mU*mA*mU*dC*dT*dG*dC*dT*dG*dC*dC*dC*dA*mC*mC*mU*mU*mC; antisense) [[CDKN2B-AS1]832] with TLR9-500 nM: averaged NF-κB-Luciferase relative to ODN2006 of 80% or above?
class 0
